measurement_target: T1, human CTLA-4.ECD-6×His (human, UniProt P16410 36-161)
T1 construct: extracellular domain; also called WBP316.hCTLA-4.ECD-6×His; hCTLA4-His (WT)
T1 sequence: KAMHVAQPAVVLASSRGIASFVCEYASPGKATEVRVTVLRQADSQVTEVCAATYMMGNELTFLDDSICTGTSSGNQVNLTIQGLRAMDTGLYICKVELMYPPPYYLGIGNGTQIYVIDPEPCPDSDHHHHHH
measurement_protocol: SPR, antibody captured on anti-human Fc, CTLA-4 ECD as analyte, 1:1 fit
Procedure: The binding kinetics of four antibodies were measured using SPR. The antibodies were captured on immobilized goat anti-human Fc, and then human CTLA-4 ECD at different concentration was injected orderly. The sensorgrams for reference channel and buffer channel were subtracted from the test sensorgrams. The data was used to fit in 1:1 binding analysis. Biacore T200, Series S Sensor Chip CMS, Amine Coupling Kit, and 10×HBS-EP were purchased from GE Healthcare. […]
reported_property: pKd
Keep it numeric: pKd is minus log10 of the concentration in mol/L.

Example results:
[
  {
    "binder": "W3162-1.154.8 xAb.IgG1 (antibody, V domains shown, Chimeric: rat variable regions fused with constant region of human antibody (label xAb.IgG1)) VH: EVQLQQSGPEAGRPGSSVKISCKASGYTFTNYFMNWVKQSPGQGLEWIGRVDPENGRADYAEKFKKKATLTADTTSNTAYIHLSSLTSEDTATYFCARRAMDNYGFAYWGQGTLVTVSS VL: EIMLTQSPTIMAASLGEKITITCSANSSLSYMYWFQQKSGASPKLWVHGTSNLASGVPDRFSGSGSGTSYYLTINTMEAEDAATYFCHHWSNTQWTFGGGTKLELK",
    "reported_property": "pKd",
    "readout_value": 10.17
  },
  {
    "binder": "W3162-1.146.19 xAb.IgG1 (antibody, V domains shown, Chimeric: rat variable regions fused with constant region of human antibody (label xAb.IgG1)) VH: EVQLQESGPGLVKPSQSLSLTCSVTYHTITSGYDWTWIRKFPGNQMEWMGYISYSGNTNYNPSLKSRISITRDTSKNQFFLHLNSVTSEDTATYYCASMMVPHYYVMDAWGQGASVTVSS VL: DVVLTQTPPTSSATIGQSVSISCRSSQSLLNSDGNTYLYWYLQRPSQSPQLLIYLVSKLGSGVPNRFSGSGSGTDFTLKISGVEAEDLGLYYCVQGTHDPWTFGGGTKLELK",
    "reported_property": "pKd",
    "readout_value": 9.68
  },
  {
    "binder": "W3162-1.145.10 xAb.IgG1 (antibody, V domains shown, Chimeric: rat variable regions fused with constant region of human antibody (label xAb.IgG1)) VH: EVQLVESGGGLVQPGRSLKLSCAASDLTFSNYDMAWVRQTPTKGLEWVASISPNGGNTYYRDSVKGRFTVSRDNAKNSLYLQMDSLRSEDTATYYCARHLWFAYWGQGTLVTVSS VL: DIQMTQSPSSMSASLGDRVTISCQASQDIGSNLIWFQQKPGKSPRPMIYYATHLADGVPSRFSGSRSGSDYSLTISSLESEDVADYHCLQYKQYPRTFGGGTKLELK",
    "reported_property": "pKd",
    "readout_value": 8.68
  }
]

Alright, here's another binder for you.
Which measured pKd value corresponds to W3162-1.101.2 xAb.IgG1 (antibody, V domains shown, Chimeric: rat variable regions fused with constant region of human antibody (label xAb.IgG1)) VH: EEQLVESGGGLVQPGKSLKLSCSASGFTFRSSAMHWIRQPPGKGLDWVAFISSGGDTAYADAVKGRFIVSRDNAENTLFLQLNSLKSEDTAIYYCVRMERIPTWGQGVMVTVSS VL: DIVLTQSPVLAVSLGQRATISCRASQSVSISSINLIHWYQQRPGQQPKLLIYRTSNLASGIPARFSGSGSGTDFTLSIDPVQADDVADYYCQQSRESPLTFGSGTKLEIK ? 10.00
